Reported pKd values for the following binders.
- target_under_test: T1, Recombinant hIL-21-Fc (AcroBiosystems) (human, UniProt Q9HBE4 30-162)
- T1 construct: bought; also called rhIL-21; not shown: Fc of the bought reagent, not described
- assay_protocol: SPR, Fab on captured rhIL-21-Fc
pKd: −log10 of the molar value.
readout: pKd

>>> result("ZAP122m7 Fab (Fab, V domains shown, Fab) VH: QVQLQESGPGLVKPSETLSLTCTVSGGSISSDFWGWIRQPPGKGLEWIGYISSRGSTNYNPSLKRRVTISVDTSRNQFSLKLSSVTAADTAVYYCARSAGVTDFDFWGQGTLVTVSS VL: DIQMTQSPSSVSASVGDRVTITCRASQGISSWLAWYQHKPGKAPKLLIYVASSLQSGVPSRFSGSGSGTDFTLTISSLQPEDFATYYCQQANAFPLTFGGGTKVEIK")
"> 10.59"
>>> result("ZAP122m15 Fab (Fab, V domains shown, Fab) VH: QVQLQESGPGLVKPSETLSLTCTVSGGSISSDFWGWIRQPPGKGLEWIGYIYSRGSTNYNPSLKRRVTISVDTSRNQFSLKLSSVTAADTAVYYCARSAGVTDFDFWGQGTLVTVSS VL: DIQMTQSPSSVSASVGDRVTITCRASQGISSWLAWYQHKPGKAPKLLIYVASSLQSGVPSRFSGSGSGTDFTLTISSLQPEDFATYYCQQANSFPLTFGGGTKVEIK")
"> 10.76"
>>> result("ZAP122 Fab (Fab, V domains shown, Fab; also called ZAP122 wt) VH: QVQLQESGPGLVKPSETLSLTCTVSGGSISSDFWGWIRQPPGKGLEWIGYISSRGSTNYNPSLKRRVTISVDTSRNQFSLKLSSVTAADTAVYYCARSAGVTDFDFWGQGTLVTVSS VL: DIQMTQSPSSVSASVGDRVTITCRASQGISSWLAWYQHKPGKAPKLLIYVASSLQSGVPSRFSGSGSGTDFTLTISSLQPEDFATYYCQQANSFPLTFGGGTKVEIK")
"> 10.58"

Sourced from patent EP4671273A1
